assayed-target: human CD137 on primary human CD8+ T cells (human, UniProt Q07011 24-255)
Sequence (Q07011 24-255): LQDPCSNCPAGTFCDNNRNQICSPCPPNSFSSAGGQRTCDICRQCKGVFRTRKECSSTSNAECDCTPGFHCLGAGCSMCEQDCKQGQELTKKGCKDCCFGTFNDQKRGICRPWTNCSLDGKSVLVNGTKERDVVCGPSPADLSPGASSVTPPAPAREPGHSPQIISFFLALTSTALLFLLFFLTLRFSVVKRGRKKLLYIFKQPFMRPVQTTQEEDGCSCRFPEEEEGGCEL
protocol: cell-based or functional assay

>  <binder>
G1AA/FS30-6 (antibody, human IgG1, kappa, L234A L235A, V domains shown) VH: EVQLLESGGGLVQPGGSLRLSCAASGFTVSYYSISWVRQAPGKGLEWVSDIYSYYGYTDYADSVKGRFTISRDNSKNTLYLQMNSLRAEDTAVYYCARVSYGGQAFDYWGQGTLVTVSS VL: EIVLTQSPGTLSLSPGERATLSCRASQSVSSSYLAWYQQKPGQAPRLLIYGASSRATGIPDRFSGSGSGTDFTLTISRLEPEDFAVYYCQQYDDYPVTFGQGTKVEIKR

>  <unit-string>
pg/mL

>  <Emax (hIL-2 pg/ml), crosslinked mAb>
1510

$$$$
>  <binder>
G1AA/FS30-5 (antibody, human IgG1, kappa, L234A L235A, V domains shown, human IgG1 with LALA mutation in CH2; also called FS30-5 mAb) VH: EVQLLESGGGLVQPGGSLRLNCAASGFTFSSYAMSWVRQAPGKGLEWVSAISGSGGSTYYADSVKGRFTISRDNSKNTLYLQMNSLRAEDTAVYYCARSYDKYWGSSMYSGMDYWGQGTLVTVSS VL: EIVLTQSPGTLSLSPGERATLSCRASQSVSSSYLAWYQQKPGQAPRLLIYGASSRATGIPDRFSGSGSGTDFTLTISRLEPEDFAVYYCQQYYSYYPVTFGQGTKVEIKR

>  <unit-string>
pg/mL

>  <Emax (hIL-2 pg/ml), crosslinked mAb>
10900

$$$$
>  <binder>
G1AA/FS30-10 (antibody, human IgG1, kappa, L234A L235A, V domains shown, human IgG1 with LALA mutation in CH2; also called FS30-10 mAb) VH: EVQLLESGGGLVQPGGSLRLSCAASGFTFSSYDMSWVRQAPGKGLEWVSDIDPTGSKTDYADSVKGRFTISRDNSKNTLYLQMNSLRAEDTAVYYCARDLMVYGFDYWGQGTLVTVSS VL: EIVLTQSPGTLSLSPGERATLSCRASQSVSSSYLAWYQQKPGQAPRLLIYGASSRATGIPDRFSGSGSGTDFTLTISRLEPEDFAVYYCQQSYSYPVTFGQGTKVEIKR

>  <unit-string>
pg/mL

>  <Emax (hIL-2 pg/ml), crosslinked mAb>
8560

$$$$
>  <binder>
G1AA/FS30-16 (antibody, human IgG1, kappa, L234A L235A, V domains shown, human IgG1 with LALA mutation in CH2; also called FS30-16 mAb) VH: EVQLLESGGGLVQPGGSLRLSCAASGFTFSNYAMHWVRQAPGKGLEWVSTIDPTDGATNYADSVKGRFTISRDNSKNTLYLQMNSLRAEDTAVYYCARSKYYTYMQYVALDYWGQGTLVTVSS VL: EIVLTQSPGTLSLSPGERATLSCRASQSVSSSYLAWYQQKPGQAPRLLIYGASSRATGIPDRFSGSGSGTDFTLTISRLEPEDFAVYYCQQGSRFFPITFGQGTKVEIKR

>  <unit-string>
pg/mL

>  <Emax (hIL-2 pg/ml), crosslinked mAb>
4840

$$$$
>  <binder>
G1AA/FS30-15 (antibody, human IgG1, kappa, L234A L235A, V domains shown, human IgG1 with LALA mutation in CH2; also called FS30-15 mAb) VH: EVQLLESGGGLVQPGGSLRLSCAASGFTFSGSGMSWVRQAPGKGLEWVSIIYSTNGDTDYADSVKGRFTISRDNSKNTLYLQMNSLRAEDTAVYYCARDFYDIANYYAFDYWGQGTLVTVSS VL: EIVLTQSPGTLSLSPGERATLSCRASQSVSSSYLAWYQQKPGQAPRLLIYGASSRATGIPDRFSGSGSGTDFTLTISRLEPEDFAVYYCQQAYYDPITFGQGTKVEIKR

>  <unit-string>
pg/mL

>  <Emax (hIL-2 pg/ml), crosslinked mAb>
11100

$$$$
